SYSTEM_NAME: human GPR17 short isoform (Homo sapiens, UniProt Q13304)
Sequence (Q13304 29-367): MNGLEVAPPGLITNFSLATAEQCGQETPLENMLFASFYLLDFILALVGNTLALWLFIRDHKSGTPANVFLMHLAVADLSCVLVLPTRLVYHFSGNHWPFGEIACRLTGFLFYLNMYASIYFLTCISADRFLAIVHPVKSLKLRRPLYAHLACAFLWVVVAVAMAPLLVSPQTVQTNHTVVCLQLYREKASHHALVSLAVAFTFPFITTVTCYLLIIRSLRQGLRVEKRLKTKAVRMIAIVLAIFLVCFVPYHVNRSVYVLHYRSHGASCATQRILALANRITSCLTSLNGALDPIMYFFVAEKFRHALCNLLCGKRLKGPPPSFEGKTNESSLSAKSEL
PROTOCOL_DESCRIPTION: GPR17 cAMP assay (hGPR17 cAMP)
PROTOCOL_CONDITIONS: CHO-K1 cells stably expressing human GPR17 short isoform; antagonist mode vs EC80 of MDL29,951; forskolin 15 μM; TR-FRET cAMP
READOUT: IC50

INSERT INTO assay_data (cpd_smiles, meas_value) VALUES
  ('O=S(=O)(Nc1cnc(Cl)nc1Cl)c1c[nH]c2cc(Cl)ccc12', '1.19 µM'),
  ('COc1nc(OCC(F)F)ncc1NS(=O)(=O)c1c[nH]c2nc(Cl)ccc12', '0.46 µM'),
  ('COc1nc(NS(=O)(=O)c2c[nH]c3cc(Cl)ccc23)nnc1C', '5.22 µM');
